Test: Association constant, apparent pKa of the compound
Assay type: physicochemical
ATTRIBUTE MEASURED: pKa

{"SMI": "Clc1ccc2[nH]c(-c3ccncc3)nc2c1", "pKa": 3.5}
{"SMI": "FC(F)(F)c1cnc(-c2ccncc2)[nH]1", "pKa": 3.76}
{"SMI": "FC(F)(F)c1cnc(-c2cccnc2)[nH]1", "pKa": 3.5}
{"SMI": "c1ccc2[nH]c(-c3ccncc3)nc2c1", "pKa": 3.85}
{"SMI": "Clc1cc2nc(-c3ccncc3)[nH]c2cc1Cl", "pKa": 3}
{"SMI": "COC(=O)c1nc(-c2ccncc2)[nH]c1C(=O)OC", "pKa": 3.98}
